# credit: the supplement of paper PMC3334620

- measurement_target: Sko1 (UniProt Q02100)
- Sequence: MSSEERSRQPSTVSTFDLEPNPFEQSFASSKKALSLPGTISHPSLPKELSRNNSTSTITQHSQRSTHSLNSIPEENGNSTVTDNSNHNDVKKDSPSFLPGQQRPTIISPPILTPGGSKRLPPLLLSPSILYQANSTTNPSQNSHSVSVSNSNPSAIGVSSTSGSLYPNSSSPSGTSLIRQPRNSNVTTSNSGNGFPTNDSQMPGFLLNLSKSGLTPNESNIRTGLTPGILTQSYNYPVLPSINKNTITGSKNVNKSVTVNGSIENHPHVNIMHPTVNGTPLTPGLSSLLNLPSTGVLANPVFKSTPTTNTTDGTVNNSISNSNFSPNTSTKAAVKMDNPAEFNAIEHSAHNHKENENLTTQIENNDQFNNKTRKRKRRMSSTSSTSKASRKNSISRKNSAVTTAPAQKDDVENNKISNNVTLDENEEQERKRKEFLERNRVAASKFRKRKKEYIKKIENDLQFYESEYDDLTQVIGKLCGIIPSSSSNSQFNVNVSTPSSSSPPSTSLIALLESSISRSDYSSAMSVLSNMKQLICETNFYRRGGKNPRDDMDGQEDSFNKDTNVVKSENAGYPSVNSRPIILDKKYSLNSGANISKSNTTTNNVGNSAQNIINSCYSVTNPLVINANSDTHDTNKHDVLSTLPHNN
- test_method_notes: PBM E-score (8-mer binding enrichment) (E-score (-0.5 to 0.5)); higher = stronger / more preferred TF binding
- protocol_conditions: protein concentration: 200 nM; construct: GST-full length
Over roughly 33,000 sequences, “E-score (-0.5 to 0.5)” has its median near -0.032; the highest 2% begin near 0.36. Only a selection was taken, and the highest values are over-represented in it overall.
experimental_endpoint: PBM E-score

Query: So what's the measured PBM E-score for this one? `CCGCTCAC`
Reply: -0.0552

Query: How about `CCGTCACG` ?
Reply: 0.152

Query: How about `ACTAACAG` ?
Reply: 0.0358

Query: How about `AGATACGA` ?
Reply: 0.208

Query: How about `CACGTAAA` ?
Reply: 0.437

Query: How about `GCCGTAGC` ?
Reply: -0.328

Query: How about `GCGTCACC` ?
Reply: 0.341

Query: How about `TAGGCTCA` ?
Reply: -0.19

Query: How about `TATAGAAA` ?
Reply: 0.0683

Query: How about `GGAGGCCC` ?
Reply: -0.241

Query: How about `AAACGTTT` ?
Reply: 0.275

Query: How about `CTCACTAA` ?
Reply: 0.118

Query: How about `GATGACCA` ?
Reply: 0.0721

Query: How about `AAGTCCAA` ?
Reply: 0.0276

Query: How about `AAACGTAG` ?
Reply: 0.393

Query: How about `GGTCGTAA` ?
Reply: 0.249

Query: How about `AGCTATAT` ?
Reply: 0.172

Query: How about `TGGCGTAA` ?
Reply: 0.414

Query: How about `GAAACCCC` ?
Reply: -0.221

Query: How about `ACGCGTAG` ?
Reply: 0.259

Query: How about `ACGCGTGA` ?
Reply: 0.32

Query: How about `GTAATTAA` ?
Reply: 0.237

Query: How about `AAGGCTGT` ?
Reply: -0.282

Query: How about `GACACTGC` ?
Reply: -0.0761

Query: How about `AGGCGTAA` ?
Reply: 0.206

Query: How about `GCACTTAA` ?
Reply: 0.109

Query: How about `ACCTAACT` ?
Reply: 0.0945

Query: How about `CCTACTTA` ?
Reply: -0.00728

Query: How about `AGAATCCC` ?
Reply: -0.0186

Query: How about `CGCGTAAG` ?
Reply: 0.352

Query: How about `AACCGCCC` ?
Reply: -0.295

Query: How about `GTATGTCA` ?
Reply: 0.398

Query: How about `TCCGTAAA` ?
Reply: -0.0256

Query: How about `AGGTTGAC` ?
Reply: -0.0293

Query: How about `AAACGTAT` ?
Reply: 0.429

Query: How about `CACGTAAG` ?
Reply: 0.448

Query: How about `TACGTAAA` ?
Reply: 0.484

Query: How about `CTGACATC` ?
Reply: 0.21

Query: How about `CCGTCACA` ?
Reply: 0.163

Query: How about `GATGACGA` ?
Reply: 0.474

Query: How about `ACGCGTAA` ?
Reply: 0.382

Query: How about `ACGTACGT` ?
Reply: 0.473

Query: How about `TACGCCTA` ?
Reply: 0.208

Query: How about `ATAGCGGA` ?
Reply: -0.0894

Query: How about `CTCGTAAG` ?
Reply: 0.243

Query: How about `GGGACATA` ?
Reply: -0.139

Query: How about `ACTGACGC` ?
Reply: 0.334

Query: How about `ATAGCGAG` ?
Reply: -0.0959

Query: How about `CTAGAATC` ?
Reply: -0.0473

Query: How about `AACCGTAA` ?
Reply: 0.0957

Query: How about `ATTGACGC` ?
Reply: 0.319

Query: How about `ATAATAGC` ?
Reply: 0.0417

Query: How about `TCGTACGA` ?
Reply: 0.282

Query: How about `ATAATTAC` ?
Reply: 0.376

Query: How about `AAACGTAC` ?
Reply: 0.37

Query: How about `AAGATGCT` ?
Reply: -0.0361

Query: How about `CGCATCAG` ?
Reply: -0.0566

Query: How about `CATCGAGA` ?
Reply: 0.0586

Query: How about `ATGACACC` ?
Reply: 0.26

Query: How about `ATGACATG` ?
Reply: 0.357

Query: How about `CCCCAGCA` ?
Reply: -0.157

Query: How about `CGTGCTAC` ?
Reply: 0.208

Query: How about `CGCAAGCA` ?
Reply: 0.0501

Query: How about `AGCCGAAT` ?
Reply: -0.104

Query: How about `ATGTACGA` ?
Reply: 0.143

Query: How about `TCGTCACA` ?
Reply: 0.379
